# System: UACC-62 melanoma
# test.summary: NCI-60 one-dose screen, 48 h
# condition.context: 10 µM unless noted
Compounds without any hit were thinned out: in the full panel of roughly 83,000, 20% have a hit. Activity calls are given as the source filed them. The calls were made as follows: active = growth percent below 10; inactive = the rest.
Outcomes you can answer with include only these: t (active), f (inactive)

Observe how each entry below is paired with its result.
[
  {
    "compound": "CCNC(=O)N1CCc2cc(OC)c(OCCc3ccc(OC)nc3)cc2C1c1ccc(C)cc1C (centres undefined)",
    "class.label": "f"
  },
  {
    "compound": "Cn1ccnc1C(=O)/C=C/c1ccc(NC(=O)c2c(F)c(F)c(F)c(F)c2F)cc1",
    "class.label": "f"
  },
  {
    "compound": "CC(=O)Nc1cccc(Nc2nc(N[C@@H](C)c3ccccc3)c3ccccc3n2)c1",
    "class.label": "f"
  },
  {
    "compound": "O=C(CCC(=O)N1CCOCC1)OCCCCCCSc1ccc([N+](=O)[O-])c2nonc12",
    "class.label": "t"
  },
  {
    "compound": "Cc1cc2nc(C(Cl)Cl)nc(-c3cccs3)n2n1",
    "class.label": "f"
  },
  {
    "compound": "Cc1[nH]c(C(=O)Nc2ccccc2OCc2cccc(C(=O)N3CCC[C@@H](N)C3)c2)c(Cl)c1Cl",
    "class.label": "t"
  },
  {
    "compound": "CCCCCc1ccc(S(=O)(=O)Nc2cccc(-c3csc(NC(=O)CNCCN(C)C)n3)c2)cc1",
    "class.label": "f"
  },
  {
    "compound": "Cn1ccnc1C(=O)/C=C/c1ccc(CNC(=O)c2ccc(S(F)(F)(F)(F)F)cc2)cc1",
    "class.label": "f"
  }
]

Field: next compound
IN: Just curious, what result did CS(=O)(=O)c1ccc(-c2nn(-c3ccccc3)cc2/C=N/NC(=O)c2nc(N)n[nH]2)cc1 get here?
OUT: f

---

# Tested on: PC-3 prostate
# test.summary: NCI-60 one-dose screen, 48 h (100 = growth as untreated, 0 = no growth, -100 = all killed)
# condition.context: 10 µM unless noted
Compounds without any hit were thinned out: in the full panel of roughly 83,000, 20% have a hit. Active and inactive are the calls of the source. The calls were made as follows: active = growth percent below 10; inactive = the rest.
observation.type: growth

Look over these answered cases.
[
  {
    "compound": "COc1ccc(-c2nc3cccc(O)c3c(=O)n2Cc2ccccc2)cc1COc1ccc(NC(C)=O)cc1",
    "system": "PC-3 prostate",
    "growth": "36.5% [3 µM] (inactive)"
  },
  {
    "compound": "CC(Nc1c(C#N)cnc2ccc(-c3cnc(N)nc3)cc12)c1ccccc1 (stereo not given)",
    "system": "PC-3 prostate",
    "growth": "10.8% (inactive)"
  },
  {
    "compound": "C=C(C)[C@@H]1CC[C@]2(COCCCNCCC#N)CC[C@]3(C)[C@H](CC[C@@H]4[C@@]5(C)CC[C@H](OCCCNCCC#N)C(C)(C)[C@@H]5CC[C@]43C)[C@@H]12",
    "system": "PC-3 prostate",
    "growth": "42.5% (inactive)"
  },
  {
    "compound": "Nn1c(N/N=C/c2nc3ccccc3s2)n[nH]c1=S",
    "system": "PC-3 prostate",
    "growth": "97.8% (inactive)"
  }
]

From here, focus on the item given below.
IN: Supply reported growth belonging to this compound: NC(N)=Nc1ccc(Oc2cccc(Nc3ccc(Cl)c(C(F)(F)F)c3)c2)cc1
OUT: 28.3% (inactive)
